- System: NCI/ADR-RES
- methodSummary: NCI tumour cell line growth inhibition, 48 h
Active and inactive are the calls of the source. No stated cut-off is given here; in the data, active = GI50 up to about 1.1 µM and inactive = higher. *1 amine or outer side, *2 acyl side, *3 side chain or, on linkers, in order; H or OH if unused. Where a SMILES comes first, the peptide text is derived from it. Non-standard residues stand in square brackets, D forms with d. Residues, ends and D or L forms follow the SMILES beside them. Bridges are numbered along the chain shown (N, C = ends). [ ]: non-standard residue; d: D form. ξ: configuration not given here. *: point of attachment. X36 = CC[C@H](C)[C@@H](N[*:1])[C@@H](O)CC(=O)O[C@H](C(=O)[C@H](C)C(=O)[*:2])C(C)C; NMeY = CN[C@@H](Cc1ccc(O)cc1)C(=O)O; ξF = NC(Cc1ccccc1)C(=O)O; Cbz = O=C(OCc1ccccc1)*
Field: GI50. Provide a value for each of the compounds that follow.

Param request: GI50 | system NCI/ADR-RES | item CC[C@H](C)[C@H]1NC(=O)[C@@H](N)[C@@H](C)OC(=O)[C@H](Cc2ccc(OC)cc2)N(C)C(=O)[C@@H]2CCCN2C(=O)[C@H](CC(C)C)NC(=O)[C@@H](C)C(=O)[C@H](C(C)C)OC(=O)C[C@@H]1O (H-T[X36]LP[NMeY](Me); ester 1-C)
> 100 µM (inactive)

Param request: GI50 | system NCI/ADR-RES | item CN1N=C(c2ccncc2)OC1c1ccc(Cl)c(Cl)c1 (stereo not drawn)
> 100 µM (inactive)

Param request: GI50 | system NCI/ADR-RES | item CCOC(=O)C(NS(=O)(=O)c1ccccc1)(C(F)(F)F)P(=O)(OCC(C)C)OCC(C)C (stereo not drawn)
> 100 µM (inactive)

Param request: GI50 | system NCI/ADR-RES | item Cn1c(=O)c2c(nc3n(Cc4ccccc4)c(=O)c(NCCCBr)cn23)n(C)c1=O
> 100 µM (inactive)

Param request: GI50 | system NCI/ADR-RES | item C/C=C/[C@H](O[Si](C)(C)C(C)(C)C)[C@@H](O)/C=C/C(=O)OCC
26.8 µM (inactive)

Param request: GI50 | system NCI/ADR-RES | item CCCCCCCCCCCCCCCCNc1nc(=O)n(C2CC(O)C(CO)O2)cc1F (stereo not drawn)
2.86 µM (inactive)

Param request: GI50 | system NCI/ADR-RES | item CCOC(=O)CNC(=O)C(Cc1ccccc1)NC(=O)OCc1ccccc1 (stereo not drawn) (Cbz-[ξF]-Gly-OEt)
> 100 µM (inactive)

Param request: GI50 | system NCI/ADR-RES | item Cc1c(NC(=O)CCl)c(=O)oc2c(C)c3occc(=O)c3cc12
18.6 µM (inactive)
